# protocol description: chemical genetic growth profiling, strain panel (AID 1159580);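 also: tested at 20 µM; growth read once vehicle control cultures reached saturation at 30 °C; lower values mean less growth of the strain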
# condition description: S. cerevisiae deletion strains, growth OD, locus YGR078C, strain PAC10
The campaign covered roughly 5,500 compounds. About 2,000 (36%) were called active. Another 18% or so got no clear call; they are omitted. Rule as the data show it: active = normalized growth mostly below about 0.91 (no sharp cut-off); inconclusive = no clear call, values can overlap the other calls; inactive = mostly above about 0.92. The list shows a part of the results.
Outcomes: active, inactive

- O=C(CN1CCOCC1)Nc1cc(C(F)(F)F)cc(C(F)(F)F)c1: inactive
- CC12CCC3C(=CCc4cc(O)ccc43)C1CCC2=O (stereo not given): inactive
- c1ccc(-c2csc(-c3cccnc3)n2)cc1: active
- COC1=CC(=O)OC(CCc2ccc(OC)c(OC)c2)C1 (stereo not given): inactive
- CC(C)c1nc(N(C)S(C)(=O)=O)nc(-c2ccc(F)cc2)c1/C=C/[C@@H](O)C[C@@H](O)CC(=O)O: inactive
- Cc1ccccc1/C=C/C1=NCCN1: inactive
- O=C1C2C3C=CC(C3)C2C(=O)N1c1ccc(F)c(F)c1 (stereo not given): inactive
- O=S(=O)(NCc1ccc(F)cc1F)c1cccc(C(F)(F)F)c1: inactive
- CC(C)(CC(=O)O)CC(=O)Nc1cc(C(F)(F)F)cc(C(F)(F)F)c1: inactive
- Cc1cc(Cl)ccc1Oc1ccc(N)cn1: inactive
- NCCCNCCSP(=O)(O)O: inactive
- COc1ccc2c(c1)OCC(Cc1ccc(OC)c(O)c1)C2=O (stereo not given): inactive
- COc1cc(OC)c2c(=O)cc(-c3ccccc3)oc2c1: active
- Cc1c(C)c(C)c(CSc2nc3ccccc3[nH]2)c(C)c1C: inactive
- CCOC(=O)c1cnn(-c2ccc(N)cc2)c1C(F)(F)F: inactive
- Nc1ccc(Oc2ccc(Cl)cc2C2CCCCC2)nc1: active
- CC(=O)O[C@]1(C)CC[C@@]23CC1C(C)(C)[C@@H]2CC[C@H]3C: inactive
- CCOC(=O)C(O)(c1ccc(N)c(C)c1)C(F)(F)F (stereo not given): inactive
- C=NC(C(=O)NC1C(=O)N2C1SC(C)(C)C2C(=O)O)c1ccccc1 (stereo not given): inactive
- COP(=S)(OC)Oc1ccc([N+](=O)[O-])cc1: inactive
- Cc1cccc(C)c1NC(=O)C1CCCCN1C (stereo not given): inactive
- NC1(C(=O)O)CCC1: inactive
- O/N=C(/CNC(c1ccccc1)(c1ccccc1)c1ccccc1)c1ccccc1: inactive
- NNC(=O)c1cnn(-c2ccc(Cl)cc2)c1C(F)(F)F: inactive
- C1N2CN3CN1CN(C2)C3: inactive

Taken from PubChem BioAssay AID1159580.
